# System: M. tuberculosis H37Rv growth inhibition, 7H9 media
# protocol-details: M. tuberculosis growth inhibition, HTS (AID 449762);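 note: bacterial growth assessed after seven days of incubation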
# study-conditions: measured here: IC90 growth inhibition
Records with an inconclusive call do not appear.
attribute-measured: log10 IC90 (log10 of the value in µM)
Lab note - IC90 converted to log10 from values in µM.

Some entries whose results are on file:
>>> df
                                   compound  numeric_value
0  COC(=O)c1c(NC(=O)CCl)sc(C(=O)N2CCOCC2)c1C           0.75
1  CCCc1cnc(NCCNCC(O)COc2ccc(Cl)c(Cl)c2)nc1 (configuration not stated)           1.34
2  O=C([O-])c1ccccc1-[n+]1c(-c2ccccc2)cc(-c2ccccc2)cc1-c1ccccc1           1.31
3  C[n+]1c(-c2ccccc2)c2cc(N)ccc2c2ccc(N)cc21           1.01
4   Cn1cnc(Sc2ncnc3nc[nH]c23)c1[N+](=O)[O-]           1.23
5    Cn1nc(-c2ccccn2)nc2c(=O)n(C)c(=O)nc1-2           1.16
6   CCOC(=O)c1c(C)[nH]c(N=Nc2ccc(OC)cc2)c1C           0.74
7  Cc1ccc(/C=C(\NC(=O)c2ccc(C)cc2)c2nc(=S)[nH][nH]2)cc1           1.69

Documented log10 IC90 of CCCCN(CCCC)CCC(O)c1cc2c(Cl)cc(Cl)cc2c2cc(C(F)(F)F)ccc12 (configuration not stated) : 1.41

response.value for `CC(C)=CCOc1ccc([C@@H]2COc3c(ccc4c3C=CC(C)(C)O4)C2)c(O)c1` (field: log10 IC90) = 0.89

Looking up CC(O)CNc1nc2ccccc2n1-c1ncnc2sc3c(c12)CCC3 (configuration not stated) , I see its log10 IC90 listed as 1.56

###

Listing of entries alongside the reported IC90.
# System: M. tuberculosis H37Rv growth inhibition, 7H9 media
# protocol-details: M. tuberculosis growth inhibition, HTS (AID 449762);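 note: bacterial growth assessed after seven days of incubation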
# study-conditions: measured here: IC90 growth inhibition
Inconclusive results are not listed.
Write down the numeric answer in µM and omit the unit.

Answered examples (3):
                                   compound  attribute_measured  numeric_value
0  CCCCCCCNC(=O)C1(CC2CC(c3cccc(Br)c3)=NO2)CCNCC1 (stereo not given)                IC90           53.1
1  CC1Cc2cc(-c3csc(NC(=O)Cc4cccs4)n3)ccc2N1S(C)(=O)=O (stereo not given)                IC90             38
2  CC(CC(=O)Nc1ccc(Cl)c([N+](=O)[O-])c1)c1ccccc1 (stereo not given)                IC90           40.7

IC90 of CCCC(NCC(O)COc1ccc(-c2ccccc2)cc1)c1ccccc1 (stereo not given) , assay on M. tuberculosis H37Rv growth inhibition, 7H9 media, is 14.9

###

# System: M. tuberculosis H37Rv growth inhibition, 7H9 media
# protocol-details: M. tuberculosis growth inhibition, HTS (AID 449762);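 note: bacterial growth assessed after seven days of incubation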
# study-conditions: measured here: IC90 growth inhibition
Records with an inconclusive call do not appear.
attribute-measured: log10 of IC90 (log10 of the value in µM)
The common logarithm of IC90 in µM is what is listed.

Notebook: Cc1cccc(N(C(=O)c2nsc(Cl)c2Cl)C(C(=O)NC2CCCC2)c2ccc(O)cc2)c1C (stereo not drawn) , log10 of IC90 read as 1.45

Looking up O=C(c1ccccc1)C1CN(Cc2ccccc2)CCC1(O)c1ccccc1 (stereo not drawn) , I found its log10 of IC90 recorded as 1.16

Lab book: log10 of IC90 of `Cc1ccc(NC(=O)CSc2nc3ccccc3c(=O)n2CCCN2CCCCC2)cc1Cl` noted as 1.74

# log10 of IC90 of `COc1ccc2nc(N=NC3=C(O)CC(C)(C)CC3=O)sc2c1` = 1.14

Kindly note the recorded log10 of IC90 for CC(OC(=O)c1cnc2ccccc2n1)c1ccccc1Cl (stereo not drawn) , which is 1.57

Value of log10 of IC90 reported for the compound `NNC(=S)NCc1ccc2c(c1)OCO2` is 1.43

Entry `O=C(c1ccc(-c2cccc(C(F)(F)F)c2)o1)N1CCN(c2ccccc2O)CC1` — recorded log10 of IC90 = 1.42
